SYSTEM: T1, neuropeptide Y2 receptor, P49146
T1 chain: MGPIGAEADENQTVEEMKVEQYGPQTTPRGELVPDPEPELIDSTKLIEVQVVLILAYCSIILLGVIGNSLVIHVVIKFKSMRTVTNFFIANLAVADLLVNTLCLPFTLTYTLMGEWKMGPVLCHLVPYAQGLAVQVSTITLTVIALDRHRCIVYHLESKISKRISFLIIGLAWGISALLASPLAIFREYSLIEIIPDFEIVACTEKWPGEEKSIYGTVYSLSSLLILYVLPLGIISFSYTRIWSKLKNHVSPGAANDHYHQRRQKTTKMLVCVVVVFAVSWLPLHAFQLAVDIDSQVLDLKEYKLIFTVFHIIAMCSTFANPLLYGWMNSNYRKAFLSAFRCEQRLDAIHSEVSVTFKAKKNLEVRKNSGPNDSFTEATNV
METHOD_DESCRIPTION: radioligand competition, [125I]-hPYY, SK-N-BE membranes
Give measured log10(Y2RBA) for each item. Keep answers brief.
On a log10 scale: recorded Y2RBA, unit nM.

> print(dat)
                                     binder  quantitative.readout
1  YPIKPEAPGEDASPEELAQYAADLKRYINMLTRQRY (modifications not checked) [SEQ ID NO 321]                  0.57
2  YPIKPEAGPEDASPEELAQYAADLRRYINMLTRQRY (modifications not checked) [SEQ ID NO 335]                 -0.14
3  YPIKPEAPGEDASPEELAQYAAELRRYIQMLTRQRY (modifications not checked) [SEQ ID NO 347]                  1.26

Here are 5 binders. What values of log10(Y2RBA) were reported for them?
1. APLEPVYPGDNATPEQMNRYYASLRHFLNLVTRQRY (modifications not checked) [SEQ ID NO 288]
2. APLEPVYPGDNATPEQLNRYYASLRHYLNLVTRQRY (modifications not checked) [SEQ ID NO 295]
3. IKPEAPGEDASPEELAQYAADLRRYINMLTRPRY (modifications not checked) [SEQ ID NO 310]
4. YPIKPEAPGEDASPDELAQYAADLRRYINMLTRQRY (modifications not checked) [SEQ ID NO 342]
5. YPIKPEAPGEDASPEELAQYAADLRRYINMLTRPRY (modifications not checked) [SEQ ID NO 309]

OUT:
[-0.46, -0.74, 2.66, -0.21, 1.89]

Batch lookup, log10(Y2RBA) per entry.
1. APLEPVYPGDNATPEQMNRYYASLRAYLNLVTRQRY (modifications not checked) [SEQ ID NO 308]
2. APLEPVYPGDNATPEELNRYYASLRHYLNLVTRQRY (modifications not checked) [SEQ ID NO 296]
3. APLEPVYPGDNATPEQMNKYYASLRHYLNLVTRQRY (modifications not checked) [SEQ ID NO 293]
4. YPIRPEAPGEDASPEELAQYAADLRRYINMLTRQRY (modifications not checked) [SEQ ID NO 332]
5. YAIKPEAPGEDASPEELAQYAADLRRYINMLTRQRY (modifications not checked) [SEQ ID NO 318]

OUT:
[-0.25, -0.12, -0.74, -0.27, 0.11]
